Molecular target: native soluble IL-6R in human plasma (human, UniProt P08887)
Test: ELISA 3, periplasmic extract; competitor BN-12; human plasma
Consider the cut-off 1. If the recorded OD450 ratio sample/blank is strictly smaller, the label is 1 (yes); if not, the label is 0 (no).

Problem: Would you kindly verify if OD450 ratio sample/blank of IL6RPMP100D11 (VHH) VHH: EVQLVESGGGLVQAGDSLRLSCLASGRSFKDDAMGWFRQAPGKEREFVSGIDWRGNIVDAESVKGRFTISRENAKNTLYLQMNHLKPEDTAVYYCAASSVFSDLRYRKNPKYWGQGTQVTVSS is strictly less than 1?
Solution: 1 (yes)

Problem: Would you kindly verify if OD450 ratio sample/blank of IL6RPMP107H5 (VHH) VHH: EVPLVESGGGLVQAGGSLNLSCNASGDIGSINAMGWYRQAPGQQREWVAVITDTDSTIYPDSVKGRFAISRDGAKNTVHLRMSSLKPEDTAVYYCNAYQAGWGDYWGQGTQVTVSS is strictly less than 1?
Solution: 0 (no)

Problem: Criterion: OD450 ratio sample/blank strictly below 1. Is it met by IL6RPMP103A4 (VHH) VHH: EVQLVESGGGLVQPGGSLRLSCAASGSIFSINTMGWYRQVPGKQRELVATVRSGSITNYADSVQDRFTITRDIDENTVYLQMNSLKPEDTAVYYCLTRASVPGRGYQDYWGQGTQVTVSS ?
Solution: 0 (no)

Problem: Consider IL6RPMP105B8 (VHH) VHH: EVQLVESGGGLVRAGGSLRLSCAASGFAFDDYAIGWFRQAPGKEREGVSSISSSNGNTYYADSVRGRFTISSDNAKNTVYLQMNSLKPEDTGVYYCAAIWGIFFNEKMPVGAYDYWGQGTQVTVSS . Does its OD450 ratio sample/blank lie strictly below 1?
Solution: 0 (no)
